Where do the numbers come from? From patent US20150147342A1.

biological target: T1, Dimeric fibrinogen-like domain of monkey (Macca fascicularis) Ang-2 conjugated to human IgG1 (monkey (Macca fascicularis)); assay: SPR, hIgG1 antibody captured, room temp
T1 construct: also called Dimeric Monkey Ang-2FD; Monkey Ang-2FD-hFc
T1 sequence (chain, as listed by the source limits assumed): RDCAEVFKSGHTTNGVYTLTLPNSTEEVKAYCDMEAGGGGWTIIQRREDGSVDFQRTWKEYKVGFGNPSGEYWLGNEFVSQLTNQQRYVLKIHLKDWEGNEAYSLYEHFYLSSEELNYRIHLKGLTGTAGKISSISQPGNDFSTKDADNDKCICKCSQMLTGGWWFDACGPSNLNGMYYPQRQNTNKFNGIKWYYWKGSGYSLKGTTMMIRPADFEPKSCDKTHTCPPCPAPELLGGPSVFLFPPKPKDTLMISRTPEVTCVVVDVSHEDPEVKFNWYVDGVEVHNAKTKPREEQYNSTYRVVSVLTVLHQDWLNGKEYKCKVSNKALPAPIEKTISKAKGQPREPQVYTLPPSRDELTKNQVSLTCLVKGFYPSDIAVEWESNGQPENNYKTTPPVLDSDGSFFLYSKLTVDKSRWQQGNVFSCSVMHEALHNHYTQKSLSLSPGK
The label is Satisfied for Kd below 0.1 nM and Not satisfied for Kd equal to or exceeding 0.1 nM.

H1H730N (antibody, V domains shown) VH: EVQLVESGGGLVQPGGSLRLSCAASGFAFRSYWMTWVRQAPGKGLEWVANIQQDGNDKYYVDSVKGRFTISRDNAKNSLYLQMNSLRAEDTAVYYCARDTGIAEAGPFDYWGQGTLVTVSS VL: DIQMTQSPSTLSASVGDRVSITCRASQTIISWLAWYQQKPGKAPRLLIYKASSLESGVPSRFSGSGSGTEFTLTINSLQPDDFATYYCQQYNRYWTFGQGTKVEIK: Not satisfied
H1H690P (antibody, V domains shown) VH: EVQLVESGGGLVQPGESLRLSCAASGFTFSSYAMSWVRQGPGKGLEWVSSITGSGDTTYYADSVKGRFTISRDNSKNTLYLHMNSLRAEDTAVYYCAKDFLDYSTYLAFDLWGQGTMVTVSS VL: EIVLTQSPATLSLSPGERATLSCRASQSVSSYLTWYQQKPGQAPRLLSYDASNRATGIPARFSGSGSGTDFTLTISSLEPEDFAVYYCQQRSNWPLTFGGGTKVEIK: Satisfied
H1H691P (antibody, V domains shown) VH: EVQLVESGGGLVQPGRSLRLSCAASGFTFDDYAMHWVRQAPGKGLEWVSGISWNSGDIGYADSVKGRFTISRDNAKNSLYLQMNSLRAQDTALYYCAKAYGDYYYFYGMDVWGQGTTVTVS VL: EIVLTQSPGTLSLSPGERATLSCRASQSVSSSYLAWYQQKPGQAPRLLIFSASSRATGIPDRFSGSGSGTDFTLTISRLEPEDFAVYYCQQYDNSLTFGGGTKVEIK: Not satisfied
H1H743N (antibody, V domains shown) VH: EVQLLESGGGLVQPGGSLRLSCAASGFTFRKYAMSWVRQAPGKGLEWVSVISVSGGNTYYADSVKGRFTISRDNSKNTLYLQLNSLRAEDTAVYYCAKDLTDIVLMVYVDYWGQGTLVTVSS VL: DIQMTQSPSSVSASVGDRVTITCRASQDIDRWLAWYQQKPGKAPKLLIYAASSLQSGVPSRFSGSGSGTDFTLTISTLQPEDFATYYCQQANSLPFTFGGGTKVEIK: Satisfied

With those in mind, consider the next binder.
stdin: # TODO verify Kd < 0.1 nM strictly for this binder: H1H732N (antibody, V domains shown) VH: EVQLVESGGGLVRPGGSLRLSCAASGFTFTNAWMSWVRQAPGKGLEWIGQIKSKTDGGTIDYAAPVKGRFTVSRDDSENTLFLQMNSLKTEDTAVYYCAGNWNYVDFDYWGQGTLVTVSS VL: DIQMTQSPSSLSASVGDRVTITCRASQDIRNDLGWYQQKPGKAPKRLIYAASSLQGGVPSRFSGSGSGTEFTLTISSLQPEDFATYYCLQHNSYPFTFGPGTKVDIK
stdout: Not satisfied
